Test: Aggregation of immunoconjugates by analytical size exclusion chromatography
Assay type: physicochemical
Conditions: conjugate with trastuzumab (TBS); Superdex 200 5/150 GL run in PBS
Define the label as Fulfilled when Aggregation % is strictly less than 10% and as Not fulfilled in all remaining cases.

compound_structure=C[C@H](O)C(=O)N(C[C@H]1CCNC1)[C@@H](c1nc(-c2cc(F)ccc2F)cn1Cc1ccccc1)C1CCOCC1 label=Fulfilled
compound_structure=O=C(N1C[C@@H](O)[C@@H](O)C1)N(C[C@@H]1CNC[C@@H]1F)[C@@H](c1nc(-c2cc(F)ccc2F)cn1Cc1ccccc1)C1CCOCC1 label="Not fulfilled"
compound_structure=CNC(=O)N(CC[C@@H](N)CF)[C@@H](c1nc(-c2cc(F)ccc2F)cn1Cc1ccccc1)C(C)(C)C label="Not fulfilled"
compound_structure=C[C@H](O)C(=O)N(CC[C@H](N)CF)[C@@H](c1nc(-c2cc(F)ccc2F)cn1Cc1cccc(F)c1)C(C)(C)C label="Not fulfilled"
compound_structure=CCOC(C)(C)[C@H](c1nc(-c2cc(F)ccc2F)cn1Cc1cccc(F)c1)N(C[C@@H]1CNC[C@@H]1F)C(=O)[C@H](C)O label="Not fulfilled"
compound_structure=CC(C)(C)[C@H](c1nc(-c2cc(F)ccc2F)cn1Cc1ccccc1)N(CCC1(N)CC1)C(=O)[C@@H]1CCCO1 label=Fulfilled

Source of measurements: patent US9498540B2
